Give measured Molecular Brightnes Relative to smURFP for each item. Keep answers brief.
# protocolDetails: FP purification and fluorescence characterization in vitro (spectra, extinction coefficient, quantum yield)
# Format: physicochemical
# condition: Table 4
In your response, put the unit directly after the numeric value.

molecule R10-10: evolved APCα FP, SEQ ID NO: 11, with BV (protein, biliverdin chromophore; smRUFP Variant Polypeptide) MKTCEQRVNIATLLTENKKKIVDKASQDLWRRHPDLIAPGGIAFSQRDRALCLRDYGWYLHLITFCLLAGDKGPIESIGLIGIREMYNSLGVPVPAMMESIRCLKEASLSLLDEEDANETAPYFDYIIKAMS , Molecular Brightnes Relative to smURFP observed: 93%

molecule R5-2: evolved APCα FP, SEQ ID NO: 6, with BV (protein, biliverdin chromophore; smRUFP Variant Polypeptide) MKTCEQRVKIATLLSENEKKIVDKASQDLWRRRPDFIAPGGIAFSQRERALCLRDHRWYLHLITFCLLAGDKDPIESIGLIGIREMYNSLGVPVPGMMESIRCLKEASLSLLDEEDAKETAPYFDYIIKAMS , Molecular Brightnes Relative to smURFP observed: 12%

molecule R11-2: evolved APCα FP, SEQ ID NO: 12, with BV (protein, biliverdin chromophore; smRUFP Variant Polypeptide) MKTCEQRVNIATLLTENKKKIVDKASQDLWRRHPDLIAPGGIAFSQRDRALCLRDYGWYLHLITFCLLAGDKGPIESIGLISIREMYNSLGVPVPAMMESIRCLKEASLSLLEEEDANETAPYFDYIIKAMS , Molecular Brightnes Relative to smURFP observed: 70%

molecule smURFP: small ultra-red fluorescent protein, SEQ ID NO: 13, homodimer, covalently attaches biliverdin (protein, homodimer; biliverdin chromophore; smRUFP Variant Polypeptide) MKTSEQRVNIATLLTENKKKIVDKASQDLWRRHPDLIAPGGIAFSQRDRALCLRDYGWFLHLITFCLLAGDKGPIESIGLISIREMYNSLGVPVPAMMESIRCLKEASLSLLDEEDANETAPYFDYIIKAMS , Molecular Brightnes Relative to smURFP observed: 100%

molecule R7-7: evolved APCα FP, SEQ ID NO: 8, with BV (protein, biliverdin chromophore; smRUFP Variant Polypeptide) MKTCEQRVKIATLLSENKKKIVDKASQDLWRRHPDLIAPGGIAFSQRERALCLRDYGWYLHLITFCLLAGDKGPIESIGLIGIREMYNSLGVPVPGMMESIRCLKEASLSLLDEEDAKETAPYFDYIIKAIS , Molecular Brightnes Relative to smURFP observed: 123%

molecule R8-9: evolved APCα FP, SEQ ID NO: 10, with BV (protein, biliverdin chromophore; smRUFP Variant Polypeptide) MKTCEQRVNIATLLSENKKKIVDKASQDLWRRRPDLIAPGGIAFSQRDRALCLRDYGWYLHLITFCLLAGDKGPIESIGLIGIREMYNSLGVPVPDMMESIRCLKEASLSLLDEEDAKETAPYFDYIIKAMS , Molecular Brightnes Relative to smURFP observed: 65%

molecule R4-1: evolved APCα FP, SEQ ID NO: 5, with BV (protein, biliverdin chromophore; smRUFP Variant Polypeptide) MKTGEQRVKIATLLSENEKKIVDKASQDLWRRRPDFIAPGGIAFSQRERALCLRDYRWYLHLITFCLLAGDKDPIESIGLIGIREMYNSLGVPVPGMMESIRCLKEASLSLLDEEDAKETAPYFDYIIKAMS , Molecular Brightnes Relative to smURFP observed: 26%

molecule R6-6: evolved APCα FP, SEQ ID NO: 7, with BV (protein, biliverdin chromophore; smRUFP Variant Polypeptide) MKTCEQRVKIATLLSENEKKIVDKASQDLWRRRPDLIAPGGIAFSQRERALCLRDYGWYLHLITFCLLAGDKGPIESIGLIGIREMYNSLGVPVPGMMESIRCLKEASLSLLDEEDAKETAPYFDYIIKAMS , Molecular Brightnes Relative to smURFP observed: 56%

molecule R3-2 + PCB: evolved APCα FP, SEQ ID NO: 4, with PCB (protein, phycocyanobilin chromophore; smRUFP Variant Polypeptide) MKTGEQRVKIATLLSENEKKIVDKASQDLWRRRPDFIAPGGIAFGQRERALCLRDYGWYLRLITFCLLAGDKDPIESIGLIGIREMYNSLGVPVPGMMESIRCLKEASLSLLDEEDAKETAPYFDYIIQAMS , Molecular Brightnes Relative to smURFP observed: 30%

molecule R8-8: evolved APCα FP, SEQ ID NO: 9, with BV (protein, biliverdin chromophore; smRUFP Variant Polypeptide) MKTCEQRVKIATLLSENKKKIVDKASQDLWRRHPDLIAPGGIAFSQRDRALCLRDYGWYLHLITFCLLAGDKGPIESIGLIGIREMYNSLGVPVPAMMESIRCLKEASLSLLDEEDANETAPYFDYIIKAMS , Molecular Brightnes Relative to smURFP observed: 104%

molecule R2-1 + PCB: evolved APCα FP, SEQ ID NO: 3, with PCB (protein, phycocyanobilin chromophore; smRUFP Variant Polypeptide) MKTGEQRVKIATLLSENEKKIVDKASQDLWRRRPDFIAPGGIAFGQRERALCLRDYGWYLRLITFCLLAGDKDPIESIGLIGVREMYNSLGVPVPGMVESIRCLKEASLSLLDEEDAKETAPYFDYIIQAMS , Molecular Brightnes Relative to smURFP observed: 14%
